Attribution: the supplement of paper PMC10307832

System: EKVX
testName: relative viability (nuclei count vs DMSO), 5 days (fraction); higher = more cells survive
runConditions: first compound 0.04 µM
measurementKind: relative viability
Output: the number by itself.

// sample COc1cc(N2CCC(C(N)=O)CC2)ccc1Nc1nc(N)c(Cl)c(Nc2ccccc2S(=O)(=O)C(C)C)n1 [HG-5-88-01] + N=C(N)NC(=N)NCCc1ccccc1 [Phenformin] (partner 250 µM) , its relative viability was 0.276

// sample C[C@@H]1CN(CC(=O)Nc2ccc3c(c2)Cc2cccc(-c4cc(=O)cc(N5CCOCC5)o4)c2S3)C[C@H](C)O1 + Nc1nc2[nH]cc(CCc3ccc(C(=O)N[C@@H](CCC(=O)O)C(=O)O)cc3)c2c(=O)[nH]1 [Pemetrexed] (partner 0.2 µM) , its relative viability was 0.376

---

System: LXF-289
testName: relative viability (nuclei count vs DMSO), 5 days (fraction); higher = more cells survive
runConditions: first compound 4 µM
measurementKind: relative viability
Output: the number by itself.

COc1cc(N2CCC(C(N)=O)CC2)ccc1Nc1nc(N)c(Cl)c(Nc2ccccc2S(=O)(=O)C(C)C)n1 [HG-5-88-01] + Cc1cc(Nc2cc(N3CCN(C)CC3)nc(Sc3ccc(NC(=O)C4CC4)cc3)n2)n[nH]1 [Tozasertib] (partner 0.1 µM): 0.0786

// sample Clc1ccc(Nc2nnc(Cc3ccncc3)c3ccccc23)cc1 [Vatalanib] + Nc1ncn([C@H]2C[C@H](O)[C@@H](CO)O2)c(=O)n1 [Decitabine] (partner 2 µM) , its relative viability was 0.352

// sample Clc1ccc(Nc2nnc(Cc3ccncc3)c3ccccc23)cc1 [Vatalanib] + C[C@]1(O)C[C@@H](c2nc(-c3ccc4ccc(-c5ccccc5)nc4c3)c3c(N)nccn32)C1 [Linsitinib] (partner 1 µM) , its relative viability was 0.919

---

Tested on: SW 1573
testName: relative viability (nuclei count vs DMSO), 5 days (fraction); higher = more cells survive
runConditions: first compound 0.3162 µM
# note: exactly 0.7 is not below, so it is no; use yes for relative viability strictly under it

Take a look at these entries with their results.
CC(C)Oc1cc(Nc2nc(N[C@@H](C)c3ccc(F)cn3)ncc2Cl)n[nH]1 [AZ23] + Nc1nc2[nH]cc(CCc3ccc(C(=O)N[C@@H](CCC(=O)O)C(=O)O)cc3)c2c(=O)[nH]1 [Pemetrexed] (partner 0.2 µM): no
CC(C)Oc1cc(Nc2nc(N[C@@H](C)c3ccc(F)cn3)ncc2Cl)n[nH]1 [AZ23] + CC(=O)c1c(C)c2cnc(Nc3ccc(N4CCNCC4)cn3)nc2n(C2CCCC2)c1=O [Palbociclib] (partner 0.5 µM): yes
CC(C)Oc1cc(Nc2nc(N[C@@H](C)c3ccc(F)cn3)ncc2Cl)n[nH]1 [AZ23] + Cc1cc(Nc2cc(N3CCN(C)CC3)nc(Sc3ccc(NC(=O)C4CC4)cc3)n2)n[nH]1 [Tozasertib] (partner 0.1 µM): yes

Threshold test, relative viability < 0.7: CC(C)Oc1cc(Nc2nc(N[C@@H](C)c3ccc(F)cn3)ncc2Cl)n[nH]1 [AZ23] + CC(=O)Nc1cccc(-n2c(=O)n(C3CC3)c(=O)c3c(Nc4ccc(I)cc4F)n(C)c(=O)c(C)c32)c1 [Trametinib] (partner 0.02 µM)
yes

Threshold test, relative viability < 0.7: CC(C)Oc1cc(Nc2nc(N[C@@H](C)c3ccc(F)cn3)ncc2Cl)n[nH]1 [AZ23] + CC(C)C[C@H](NC(=O)[C@H](Cc1ccccc1)NC(=O)c1cnccn1)B(O)O [Bortezomib] (partner 0.002 µM)
no

---

List of relative viability values.
Tested on: NCI-H727
testName: relative viability (nuclei count vs DMSO), 5 days (fraction); higher = more cells survive
runConditions: first compound 0.03162 µM
Output: the number by itself.

// sample CC(C)Oc1cc(Nc2nc(N[C@@H](C)c3ccc(F)cn3)ncc2Cl)n[nH]1 [AZ23] + CCNC(=O)c1noc(-c2cc(C(C)C)c(O)cc2O)c1-c1ccc(CN2CCOCC2)cc1 [Luminespib] (partner 0.01 µM) , its relative viability was 0.311

---

Test system: SK-MES-1
testName: relative viability (nuclei count vs DMSO), 5 days (fraction); higher = more cells survive
runConditions: first compound 0.04 µM
List of relative viability values.

Clc1ccc(Nc2nnc(Cc3ccncc3)c3ccccc23)cc1 [Vatalanib] + N=C(N)NC(=N)NCCc1ccccc1 [Phenformin] (partner 250 µM): 0.659
COc1cc(N2CCC(C(N)=O)CC2)ccc1Nc1nc(N)c(Cl)c(Nc2ccccc2S(=O)(=O)C(C)C)n1 [HG-5-88-01] + Nc1ncn([C@H]2C[C@H](O)[C@@H](CO)O2)c(=O)n1 [Decitabine] (partner 2 µM): 0.408

// below: relative viability requested for another compound
# value of relative viability, SK-MES-1, item Clc1ccc(Nc2nnc(Cc3ccncc3)c3ccccc23)cc1 [Vatalanib] + O=C(c1cc(Cc2n[nH]c(=O)c3ccccc23)ccc1F)N1CCN(C(=O)C2CC2)CC1 [Olaparib] (partner 8 µM) = 0.608

---

List of relative viability values.
Test system: NCI-H1792
testName: relative viability (nuclei count vs DMSO), 5 days (fraction); higher = more cells survive
runConditions: first compound 4 µM
Output: the number by itself.

C[C@@H]1CN(CC(=O)Nc2ccc3c(c2)Cc2cccc(-c4cc(=O)cc(N5CCOCC5)o4)c2S3)C[C@H](C)O1 + CC1(C)CCC(c2ccc(Cl)cc2)=C(CN2CCN(c3ccc(C(=O)NS(=O)(=O)c4ccc(N[C@H](CCN5CCOCC5)CSc5ccccc5)c(S(=O)(=O)C(F)(F)F)c4)cc3)CC2)C1 [Navitoclax] (partner 0.5 µM): 0.597
COc1cc(N2CCC(C(N)=O)CC2)ccc1Nc1nc(N)c(Cl)c(Nc2ccccc2S(=O)(=O)C(C)C)n1 [HG-5-88-01] + Cc1nc(NC(=O)N2CCC[C@H]2C(N)=O)sc1-c1ccnc(C(C)(C)C(F)(F)F)c1 [Alpelisib] (partner 2 µM): 0.949

// sample C[C@@H]1CN(CC(=O)Nc2ccc3c(c2)Cc2cccc(-c4cc(=O)cc(N5CCOCC5)o4)c2S3)C[C@H](C)O1 + C[C@@H](Oc1cc(-c2cnn(C3CCNCC3)c2)cnc1N)c1c(Cl)ccc(F)c1Cl [Crizotinib] (partner 1 µM) , its relative viability was 0.932

// sample COc1cc(N2CCC(C(N)=O)CC2)ccc1Nc1nc(N)c(Cl)c(Nc2ccccc2S(=O)(=O)C(C)C)n1 [HG-5-88-01] + C[C@]1(O)C[C@@H](c2nc(-c3ccc4ccc(-c5ccccc5)nc4c3)c3c(N)nccn32)C1 [Linsitinib] (partner 1 µM) , its relative viability was 0.818

// sample C[C@@H]1CN(CC(=O)Nc2ccc3c(c2)Cc2cccc(-c4cc(=O)cc(N5CCOCC5)o4)c2S3)C[C@H](C)O1 + Cc1nc(NC(=O)N2CCC[C@H]2C(N)=O)sc1-c1ccnc(C(C)(C)C(F)(F)F)c1 [Alpelisib] (partner 2 µM) , its relative viability was 0.665

// sample Clc1ccc(Nc2nnc(Cc3ccncc3)c3ccccc23)cc1 [Vatalanib] + CC1(C)CCC(c2ccc(Cl)cc2)=C(CN2CCN(c3ccc(C(=O)NS(=O)(=O)c4ccc(N[C@H](CCN5CCOCC5)CSc5ccccc5)c(S(=O)(=O)C(F)(F)F)c4)cc3)CC2)C1 [Navitoclax] (partner 0.5 µM) , its relative viability was 0.624

// sample Clc1ccc(Nc2nnc(Cc3ccncc3)c3ccccc23)cc1 [Vatalanib] + Cc1nc(NC(=O)N2CCC[C@H]2C(N)=O)sc1-c1ccnc(C(C)(C)C(F)(F)F)c1 [Alpelisib] (partner 2 µM) , its relative viability was 0.73

// sample C[C@@H]1CN(CC(=O)Nc2ccc3c(c2)Cc2cccc(-c4cc(=O)cc(N5CCOCC5)o4)c2S3)C[C@H](C)O1 + NC(=O)Nc1cc(-c2cccc(F)c2)sc1C(=O)N[C@H]1CCCNC1 [AZD7762] (partner 0.2 µM) , its relative viability was 0.314

---

Test system: NCI-H441
testName: relative viability (nuclei count vs DMSO), 5 days (fraction); higher = more cells survive
runConditions: first compound 2.53 µM
List of relative viability values.
Output: the number by itself.

CCCCCCCCCCCC1=C(O)C(=O)C=C(O)C1=O [Embelin] + Cc1nc(Nc2ncc(C(=O)Nc3c(C)cccc3Cl)s2)cc(N2CCN(CCO)CC2)n1 [Dasatinib] (partner 0.075 µM): 0.686
CCCCCCCCCCCC1=C(O)C(=O)C=C(O)C1=O [Embelin] + CS(=O)(=O)N1CCN(Cc2cc3nc(-c4cccc5[nH]ncc45)nc(N4CCOCC4)c3s2)CC1 [Pictilisib] (partner 1 µM): 0.476
CCCCCCCCCCCC1=C(O)C(=O)C=C(O)C1=O [Embelin] + CC(=O)c1c(C)c2cnc(Nc3ccc(N4CCNCC4)cn3)nc2n(C2CCCC2)c1=O [Palbociclib] (partner 0.5 µM): 0.193
CCCCCCCCCCCC1=C(O)C(=O)C=C(O)C1=O [Embelin] + Nc1ncn([C@H]2C[C@H](O)[C@@H](CO)O2)c(=O)n1 [Decitabine] (partner 2 µM): 0.198

// below: relative viability requested for another compound
// sample CCCCCCCCCCCC1=C(O)C(=O)C=C(O)C1=O [Embelin] + CC(C)C[C@H](NC(=O)[C@H](Cc1ccccc1)NC(=O)c1cnccn1)B(O)O [Bortezomib] (partner 0.002 µM) , its relative viability was 0.251
